Molecular target: GRK2 (Homo sapiens)
Construct: purchased SignalChem A14-10G
Sequence (P25098 1-689): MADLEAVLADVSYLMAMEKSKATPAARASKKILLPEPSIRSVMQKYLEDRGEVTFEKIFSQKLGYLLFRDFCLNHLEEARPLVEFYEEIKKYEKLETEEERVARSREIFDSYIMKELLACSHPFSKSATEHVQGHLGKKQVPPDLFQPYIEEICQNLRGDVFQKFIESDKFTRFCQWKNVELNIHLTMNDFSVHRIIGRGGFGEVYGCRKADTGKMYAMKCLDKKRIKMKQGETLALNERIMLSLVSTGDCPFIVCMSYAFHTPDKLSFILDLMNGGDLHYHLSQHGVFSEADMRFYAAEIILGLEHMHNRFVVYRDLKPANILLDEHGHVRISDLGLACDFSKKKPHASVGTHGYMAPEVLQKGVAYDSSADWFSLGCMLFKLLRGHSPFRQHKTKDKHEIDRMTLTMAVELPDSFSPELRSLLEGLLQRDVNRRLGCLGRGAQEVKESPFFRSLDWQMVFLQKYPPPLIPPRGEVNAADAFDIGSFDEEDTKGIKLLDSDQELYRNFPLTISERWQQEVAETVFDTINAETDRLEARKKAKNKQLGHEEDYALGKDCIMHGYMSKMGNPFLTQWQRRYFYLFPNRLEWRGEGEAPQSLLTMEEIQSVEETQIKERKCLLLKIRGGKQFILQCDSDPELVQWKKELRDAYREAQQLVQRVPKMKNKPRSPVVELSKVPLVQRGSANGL
Assay: ADPGlo GRK2 Inhibition Assay (Example 8)
Format: biochemical
Details: Enzyme Assay A, ADPGlo (Example 8); read-out: A: Enzymatic GRK2: IC50 (nM) (Example 8)
Rule: IC50 below 30 nM gives label 1, anything at or above gives label 0.

In [3]: df
Out[3]:
                                   compound      measured_target      cat
0  COc1cccc2c1OCC[C@H]2NC(=O)c1cccc(NCc2nnc(-c3ccncn3)n2C)c1  GRK2 (Homo sapiens)  label 1
1  CCCC(NC(=O)c1cccc(NCc2nnc(-c3ccncn3)n2C)c1)c1ccccn1 (stereo not shown)  GRK2 (Homo sapiens)  label 0
2  CC(NC(=O)c1cccc(NCc2nnc(-c3ccncn3)n2C)c1)c1nccn1C (stereo not shown)  GRK2 (Homo sapiens)  label 1
3  Cc1cc2c(cc1CNC(=O)c1cccc(NCc3nnc(-c4ccncn4)n3C)c1)OCCO2 [drawing 588]  GRK2 (Homo sapiens)  label 1
4  O=C(NCc1ncco1)c1cccc(NCc2nnc(-c3ccncc3)[nH]2)c1  GRK2 (Homo sapiens)  label 1
5  CCn1ncc(Cl)c1CNC(=O)c1cccc(NCc2nnc(-c3ccncn3)n2C)c1  GRK2 (Homo sapiens)  label 1
6  CC(NC(=O)c1cccc(NCc2nnc(-c3ccncn3)n2C)c1)c1nnc2ccccn12 (stereo not shown)  GRK2 (Homo sapiens)  label 0

* * *

Biological target: GRK2 (Homo sapiens)
Construct: purchased SignalChem A14-10G
Experiment: ADPGlo GRK2 Inhibition Assay (Example 8)
Format: biochemical
Details: Enzyme Assay A, ADPGlo (Example 8); read-out: A: Enzymatic GRK2: IC50 (nM) (Example 8)
Rule: IC50 below 20 nM gives rule met, anything at or above gives rule not met.

>>> print(df.to_string())
                                    compound           cat
 0  Cn1c(CNc2cccc(C(=O)NCc3c[nH]cn3)c2)nnc1-c1ccncn1  rule not met
 1  Cn1c(CNc2cccc(C(=O)NCc3cc(F)ccc3F)c2)nnc1-c1ccncn1  rule not met
 2  O=C(N[C@@H]1COc2cc(F)ccc21)c1cccc(NCc2nnc(-c3ccncc3)[nH]2)c1      rule met
 3  Cn1c(CNc2cccc(C(=O)NC(CO)c3cccc(C(F)(F)F)c3)c2)nnc1-c1ccncn1 (centres unmarked)  rule not met
 4  Cn1c(CNc2cccc(C(=O)N[C@H]3COc4cc(F)ccc43)c2)nnc1-c1ccncc1      rule met
 5  COc1cc(F)cc(CNC(=O)c2cccc(NCc3nnc(-c4ccncn4)n3C)c2)c1  rule not met
 6  Cn1c(CNc2cccc(C(=O)NCc3c(F)cccc3-n3cccn3)c2)nnc1-c1ccncn1  rule not met
 7  CC(NC(=O)c1cccc(NCc2nnc(-c3ccncn3)n2C)c1)c1ccccn1 (centres unmarked)  rule not met
 8  O=C(NCc1ncccn1)c1cccc(NCc2nnc(-c3ccncc3)[nH]2)c1      rule met
 9  Cn1c(CNc2cccc(C(=O)NCc3ccc(F)cc3F)c2)nnc1-c1ccncn1      rule met
10  Cc1ccnc(CNC(=O)c2cccc(NCc3nnc(-c4ccncc4)[nH]3)c2)n1      rule met
11  COCC(NC(=O)c1cccc(NCc2nnc(-c3ccncn3)n2C)c1)c1ccc(F)c(F)c1 (centres unmarked)  rule not met
12  CC(NC(=O)c1cccc(NCc2nnc(-c3ccncn3)n2C)c1)c1c[nH]cn1 (centres unmarked) [drawing 599]      rule met
13  Cc1cccnc1C(C)(C)NC(=O)c1cccc(NCc2nnc(-c3ccncn3)n2C)c1  rule not met
14  CC(NC(=O)c1cccc(NCc2nnc(-c3ccncn3)n2C)c1)c1ccsc1 (centres unmarked)      rule met
15  Cn1c(CNc2cccc(C(=O)N[C@H]3CCOc4c(F)cccc43)c2)nnc1-c1ccncn1      rule met
